test_method_notes: chemical genetic growth profiling, strain panel (AID 1159580);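 further: tested at 20 µM; growth read once vehicle control cultures reached saturation at 30 °C; 1 = growth at the plate median or of vehicle wells; lower values mean less growth of the strain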
test_context: S. cerevisiae deletion strains, growth OD, locus YJL129C, strain trk1, hits give low values
The campaign covered roughly 5,500 compounds. About 2,000 (36%) were called active. About 18% were inconclusive and are not listed. Some of the results follow.
attribute_measured: normalized growth

Examples with their reported normalized growth follow.
| compound | result |
| --- | --- |
| O=C1CC(c2ccc(O)c(O)c2)Oc2cc(O)cc(O)c21 (stereo not given) | 0.999 (inactive) |
| O=c1ccc2cc(O)c(O)cc2o1 | 0.973 (inactive) |

# query: normalized growth of entry "O=c1ccc2ccccc2o1"
0.985 (inactive)

# query: normalized growth of entry "C/C=C(/C(=C/C)c1ccc(O)cc1)c1ccc(O)cc1"
0.9 (inactive)

# query: normalized growth of entry "CCOC(=O)c1ncn2c1CN(C)C(=O)c1cc(F)ccc1-2"
1.01 (inactive)

====

test_method_notes: chemical genetic growth profiling, strain panel (AID 1159580)
test_context: S. cerevisiae deletion strains, growth OD, locus YCR088W, strain abp1, hits give low values
Screen size: about 5,500 compounds; about 2,000 (36%) were called active. Not shown: some 18% with an inconclusive outcome. The list shows a part of the results.
attribute_measured: normalized growth
In your answer, state the number alone without any accompanying words.

Examples with their reported normalized growth follow.
| compound | normalized growth |
| --- | --- |
| N=c1nc(N2CCCCC2)cc(N)n1O | 0.989 |
| C/C=C(/C(=C/C)c1ccc(O)cc1)c1ccc(O)cc1 | 0.989 |

# query: normalized growth of entry "Cc1cc(OC(=O)N2CCCCC2)c(C(C)C)cc1[N+](C)(C)C"
1.01

# query: normalized growth of entry "OCCN(CCO)c1nc(N2CCCCC2)c2nc(N(CCO)CCO)nc(N3CCCCC3)c2n1"
0.989

# query: normalized growth of entry COc1ccc2c(c1)C1(C)CCC(=O)CC1CC2 (centres undefined)
1.01

# query: normalized growth of entry COc1cc2c(cc1OC)C(=O)C(CC1CCN(Cc3ccccc3)CC1)C2 (centres undefined)
1.01

# query: normalized growth of entry "c1ccc(CN(CC2=NCCN2)c2ccccc2)cc1"
1.01

# query: normalized growth of entry CCC1(C)CC(=O)NC1=O (centres undefined)
0.974

# query: normalized growth of entry "CCCCOc1ccc(OCCCN2CCOCC2)cc1"
0.997

# query: normalized growth of entry "COc1ccc(-c2coc3c(O)c(OC)ccc3c2=O)cc1"
0.973

# query: normalized growth of entry "Cn1cc[nH]c1=S"
0.991

# query: normalized growth of entry "CCCCCCCC/C=C/CCCCCCCCOP(=O)([O-])OCC[N+](C)(C)C"
0.0562

# query: normalized growth of entry "O=c1ccc2cc(O)c(O)cc2o1"
1.01

# query: normalized growth of entry COc1cccc2c1CCC1CC(=O)CCC21C (centres undefined)
0.993

# query: normalized growth of entry "CC(=O)CC(=O)CCC(=O)O"
1.02

# query: normalized growth of entry "Cc1cc(C(C)(C)CC(C)(C)C)ccc1OCCOCC[N+](C)(C)Cc1ccccc1"
0.0592

# query: normalized growth of entry "COc1ccc(-c2coc3c(OC)c(OC)cc(O)c3c2=O)cc1"
0.997

# query: normalized growth of entry "CC[C@@H](CO)NCCN[C@@H](CC)CO"
1.01

# query: normalized growth of entry "O=c1ccc2ccccc2o1"
0.982

====

test_method_notes: chemical genetic growth profiling, strain panel (AID 1159580)
test_context: S. cerevisiae deletion strains, growth OD, locus YJL128C, strain PBS2, hits give low values
Out of some 5,500 compounds screened, about 2,000 (36%) were called active. Roughly 18% stayed inconclusive and do not appear here. This is one part of the list.
attribute_measured: normalized growth
In your answer, state the number alone without any accompanying words.

| compound | result_number |
| --- | --- |
| Cc1c(Cl)cccc1NC(=S)N1CCCN(c2ccc(C(F)(F)F)cc2[N+](=O)[O-])CC1 | 0.942 |
| Cc1c(C(=O)N2CCCCC2)cc(-c2ccccc2)n1-c1ccccc1 | 0.922 |
| Cn1cncc1S(=O)(=O)/C(C#N)=C/c1ccccc1Sc1ccc(Cl)cc1 | 0.944 |
| O=[N+]([O-])c1cc(C(F)(F)F)ccc1-n1ccc(-c2cccs2)n1 | 0.897 |

# query: normalized growth of entry "CC1=CC(=O)C(CCOCCC2=CC(=O)C(C)=CC2=O)=CC1=O"
0.934

# query: normalized growth of entry CCC(C)c1ccccc1NC(=O)c1cc2cccc([N+](=O)[O-])c2[nH]1 (stereo unspecified)
0.994

====

# normalized growth values compiled below
test_method_notes: chemical genetic growth profiling, strain panel (AID 1159580)
test_context: S. cerevisiae deletion strains, growth OD, locus YNL322C, strain KRE1 (second series), hits give low values
About 2,000 (36%) of roughly 5,500 compounds were called active. Another 18% or so got no clear call; they are omitted. The list shows a part of the results.
In your answer, state the number alone without any accompanying words.

| compound | normalized growth |
| --- | --- |
| CCC(C(=O)O)c1ccccc1 (stereo not given) | 0.972 |
| CCCCOc1ccc(CC(=O)NO)cc1 | 0.997 |
| CCc1ccc(CCOc2ccc(CC3SC(=O)NC3=O)cc2)nc1 (stereo not given) | 1.02 |
| O=C(O)C1CC([C@@H]2CCCCN2)CN2CCCCC12 (stereo not given in full) | 0.971 |
| c1ccc(CN(CC2=NCCN2)c2ccccc2)cc1 | 1.01 |

# query: normalized growth of entry "c1ccc(CC2=NCCN2)cc1"
1.01

====

test_method_notes: chemical genetic growth profiling, strain panel (AID 1159580);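 further: tested at 20 µM; growth read once vehicle control cultures reached saturation at 30 °C; 1 = growth at the plate median or of vehicle wells; lower values mean less growth of the strain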
test_context: S. cerevisiae deletion strains, growth OD, locus YHR129C, strain ARP1, hits give low values
The campaign covered roughly 5,500 compounds. About 2,000 (36%) were called active. Roughly 18% stayed inconclusive and do not appear here. The list shows a part of the results.
attribute_measured: normalized growth
In your answer, state the number alone without any accompanying words.

Examples with their reported normalized growth follow.
| compound | result_number |
| --- | --- |
| COC(=O)COc1cc(Cl)c(Cl)cc1Cl | 0.976 |
| COc1c(CC=C(C)C)c2c(c3oc(=O)c(-c4ccc(O)cc4)c(O)c13)C=CC(C)(C)O2 | 0.899 |
| O=c1ccc2cc(O)c(O)cc2o1 | 1.01 |
| COc1ccc2c(c1)[C@@]1(C)CCC(=O)C[C@H]1CC2 | 0.992 |
| COc1ccc2c(c1)C1(C)CCC(=O)CC1CC2 (configuration not stated) | 0.993 |
| Cc1ccc2c(c1)CC[C@H]1CC(=O)CC[C@]21C | 0.996 |
| Cc1ccc(C(=O)C(C)CN2CCCCC2)cc1 (configuration not stated) | 1.02 |
| CNc1ccccc1C(=O)N1CCc2c([nH]c3ccccc23)C1=O | 1.01 |

# query: normalized growth of entry "OC(CCN1CCCCC1)(c1ccccc1)c1ccccc1"
1

# query: normalized growth of entry CC(=O)[C@H]1CCC2C3C[C@H](C)C4=CC(=O)CC[C@]4(C)C3[C@@H](O)C[C@@]21C (some centres not stated)
0.995

# query: normalized growth of entry "NC/C=C/C(=O)O"
1.02

# query: normalized growth of entry CCC(C(N)=O)c1ccccc1 (configuration not stated)
1

====

test_method_notes: chemical genetic growth profiling, strain panel (AID 1159580);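 further: tested at 20 µM; growth read once vehicle control cultures reached saturation at 30 °C; 1 = growth at the plate median or of vehicle wells; lower values mean less growth of the strain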
test_context: S. cerevisiae deletion strains, growth OD, locus YNL298W, strain CLA4 (second series), hits give low values
The whole screen tested about 5,500 compounds, of which about 2,000 (36%) were called active. Another 18% or so got no clear call; they are omitted. The list shows a part of the results.
# normalized growth values compiled below
In your answer, state the number alone without any accompanying words.

Examples with their reported normalized growth follow.
| chemical_string | result_number |
| --- | --- |
| CC(=O)OCc1ccc(/C=C(\C#N)S(=O)(=O)c2ccc(Cl)cc2)o1 | 1.01 |
| COc1ccccc1C1CCN(C(=O)c2ccc(F)cc2)CC1 | 0.982 |

# query: normalized growth of entry "Cc1c(Cl)cccc1SCC(=O)O"
1.02

====

# normalized growth values compiled below
test_method_notes: chemical genetic growth profiling, strain panel (AID 1159580);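 further: tested at 20 µM; growth read once vehicle control cultures reached saturation at 30 °C; 1 = growth at the plate median or of vehicle wells; lower values mean less growth of the strain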
test_context: S. cerevisiae deletion strains, growth OD, locus YGL167C, strain pmr1, hits give low values
Among all 5,500 compounds or so, about 2,000 (36%) were called active. Another 18% or so got no clear call; they are omitted. The list shows a part of the results.
In your answer, state the number alone without any accompanying words.

| compound | normalized growth |
| --- | --- |
| COC(=O)COc1cc(Cl)c(Cl)cc1Cl | 0.997 |
| NC(N)=Nc1nc(CSCCC(N)=NS(N)(=O)=O)cs1 | 0.961 |
| CC(=O)O[C@]1(C(C)=O)CCC2C3C=C(C)C4=CC(=O)CCC4(C)C3CCC21C (stereo not given in full) | 0.955 |
| C/C=C(/C(=C/C)c1ccc(O)cc1)c1ccc(O)cc1 | 0.978 |
| C[N+](C)(C)CCOP(=O)([O-])OP(=O)(O)OC[C@H]1OC(n2ccc(N)nc2=O)[C@H](O)[C@@H]1O (stereo not given in full) | 0.973 |
| CCc1ccc(CCOc2ccc(CC3SC(=O)NC3=O)cc2)nc1 (stereo not given) | 1 |

# query: normalized growth of entry "C=CC1=C(C(=O)O)N2C(=O)[C@@H](NC(=O)/C(=N/O)c3csc(N)n3)[C@H]2SC1"
1.01

# query: normalized growth of entry "Cc1cc(=O)c2c(O)c(C)c(O)cc2o1"
1.03

# query: normalized growth of entry "N=c1nc(N2CCCCC2)cc(N)n1O"
0.985

# query: normalized growth of entry CC1(C)C2CC[C@]3(C)C(C(=O)C=C4[C@@H]5C[C@@](C)(C(=O)O)CC[C@]5(C)CC[C@]43C)[C@@]2(C)CC[C@@H]1OC(=O)CCC(=O)O (stereo not given in full)
0.987

# query: normalized growth of entry "CC(=O)CC(=O)CCC(=O)O"
1.02

# query: normalized growth of entry CC1(C)C2CC[C@]3(C)C(C(=O)C=C4[C@@H]5C[C@@](C)(C(=O)O)CC[C@]5(C)CC[C@]43C)[C@@]2(C)CC[C@@H]1O (stereo not given in full)
0.996
